target: Epidermal growth factor receptor (Homo sapiens, UniProt P00533, L858R/T790M)
Sequence (P00533 25-1210 T790M/L858R limits assumed): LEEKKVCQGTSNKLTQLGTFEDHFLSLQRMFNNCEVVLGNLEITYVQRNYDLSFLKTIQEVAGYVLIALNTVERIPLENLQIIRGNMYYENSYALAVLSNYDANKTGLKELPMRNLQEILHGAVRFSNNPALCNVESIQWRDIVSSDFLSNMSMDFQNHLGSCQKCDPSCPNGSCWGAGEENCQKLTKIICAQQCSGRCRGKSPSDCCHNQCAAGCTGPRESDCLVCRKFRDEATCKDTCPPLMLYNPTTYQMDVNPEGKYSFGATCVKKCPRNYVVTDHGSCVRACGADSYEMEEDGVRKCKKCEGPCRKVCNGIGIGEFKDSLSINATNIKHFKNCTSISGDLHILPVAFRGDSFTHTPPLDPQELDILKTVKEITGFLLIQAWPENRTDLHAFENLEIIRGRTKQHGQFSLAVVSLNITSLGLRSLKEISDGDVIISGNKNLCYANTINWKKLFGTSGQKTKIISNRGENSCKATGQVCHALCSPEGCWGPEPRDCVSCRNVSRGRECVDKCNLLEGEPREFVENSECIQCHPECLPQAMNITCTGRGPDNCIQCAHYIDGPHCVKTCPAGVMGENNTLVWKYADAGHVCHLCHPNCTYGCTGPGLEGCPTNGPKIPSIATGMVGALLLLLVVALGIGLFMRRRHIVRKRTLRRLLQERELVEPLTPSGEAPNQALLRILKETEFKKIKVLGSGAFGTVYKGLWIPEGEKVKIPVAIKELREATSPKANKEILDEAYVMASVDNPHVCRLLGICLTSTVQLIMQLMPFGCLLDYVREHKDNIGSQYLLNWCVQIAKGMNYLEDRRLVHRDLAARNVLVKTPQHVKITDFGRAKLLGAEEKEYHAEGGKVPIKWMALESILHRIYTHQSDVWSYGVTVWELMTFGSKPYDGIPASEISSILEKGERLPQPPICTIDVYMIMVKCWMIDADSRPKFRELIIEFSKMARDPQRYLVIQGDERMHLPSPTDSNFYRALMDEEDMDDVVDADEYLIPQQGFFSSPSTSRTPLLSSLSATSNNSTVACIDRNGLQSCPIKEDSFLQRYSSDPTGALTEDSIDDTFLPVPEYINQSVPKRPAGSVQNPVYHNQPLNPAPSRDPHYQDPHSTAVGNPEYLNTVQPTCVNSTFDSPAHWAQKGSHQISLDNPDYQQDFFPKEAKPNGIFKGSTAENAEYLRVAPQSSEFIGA
Threshold 0.01 µM: IC50 strictly smaller gives fulfilled, otherwise not fulfilled.

Please review the following examples before continuing.
C=CC(=O)Nc1cccc(-n2c(=O)cc(C)c3cnc(Nc4ccc(N5CCN(C)CC5)cc4OCCC)nc32)c1; not fulfilled
C=CC(=O)Nc1cccc(-n2c(=O)cc(-c3ccccc3)c3cnc(Nc4ccc(N5CCN(C)CC5)cc4OC)nc32)c1; not fulfilled
C=CC(=O)Nc1cccc(-n2c(=O)cc(C)c3c(C)nc(Nc4ccc(N5CCN(C)CC5)cc4OC)nc32)c1; not fulfilled
C=CC(=O)Nc1cccc(-n2c(=O)cc(C)c3cnc(Nc4ccc(N5CCN(C)CC5)cc4OC)nc32)c1; fulfilled
C=CC(=O)Nc1cccc(-n2c(=O)cc(N(C)C)c3cnc(Nc4ccc(N5CCN(C)CC5)cc4OC)nc32)c1; not fulfilled

# input # TODO verify IC50 < 0.01 µM strictly for this compound: C=CC(=O)Nc1cccc(-n2c(=O)cc(-c3ccc(-c4ccccc4)cc3)c3cnc(Nc4ccc(N5CCN(C)CC5)cc4OC)nc32)c1
# output not fulfilled

# input # TODO verify IC50 < 0.01 µM strictly for this compound: C=CC(=O)Nc1cccc(-n2c(=O)c(-c3ccccc3)cc3cnc(Nc4ccc(N5CCN(C)CC5)cc4OC)nc32)c1
# output fulfilled

# input # TODO verify IC50 < 0.01 µM strictly for this compound: C=CC(=O)Nc1cccc(-n2c(=O)c(Cc3ccccc3)cc3cnc(Nc4ccc(N5CCN(C)CC5)cc4OC)nc32)c1
# output fulfilled

# input # TODO verify IC50 < 0.01 µM strictly for this compound: C=CC(=O)Nc1cccc(-n2c(=O)cc(C)c3cnc(Nc4ccc(N5CCN(C)CC5)cc4OCC)nc32)c1
# output not fulfilled
